Numbers sourced from patent US8053581B2.

Below, each entry is listed with its recorded melting point.
measured-endpoint: melting point

# molecule, reported-measurement
measured = [
    ("COc1ccc(-c2nc(NC(=O)c3cc(F)cc(F)c3)sc2Cc2ccc(F)cc2)cc1", "175 to 176 °C"),
    ("OCCN(CCO)c1nc(-c2ccc(O)cc2)c(Cc2ccccc2)s1", "167 to 168 °C"),
    ("COc1ccc(C(=O)Nc2nc(-c3ccc(OC)cc3)c(Cc3ccccc3)s2)cc1", "58 to 59 °C"),
    ("COc1ccc(-c2nc(N)sc2CC2CCCCC2)cc1", "118 to 119 °C"),
    ("COc1ccc(-c2nc(NC(=O)c3cc(OC)c(OC)c(OC)c3)sc2C)cc1", "105 to 106 °C"),
]

====

- tgt: PLTP (Homo sapiens)
- Sequence (P55058 18-493, species assumed): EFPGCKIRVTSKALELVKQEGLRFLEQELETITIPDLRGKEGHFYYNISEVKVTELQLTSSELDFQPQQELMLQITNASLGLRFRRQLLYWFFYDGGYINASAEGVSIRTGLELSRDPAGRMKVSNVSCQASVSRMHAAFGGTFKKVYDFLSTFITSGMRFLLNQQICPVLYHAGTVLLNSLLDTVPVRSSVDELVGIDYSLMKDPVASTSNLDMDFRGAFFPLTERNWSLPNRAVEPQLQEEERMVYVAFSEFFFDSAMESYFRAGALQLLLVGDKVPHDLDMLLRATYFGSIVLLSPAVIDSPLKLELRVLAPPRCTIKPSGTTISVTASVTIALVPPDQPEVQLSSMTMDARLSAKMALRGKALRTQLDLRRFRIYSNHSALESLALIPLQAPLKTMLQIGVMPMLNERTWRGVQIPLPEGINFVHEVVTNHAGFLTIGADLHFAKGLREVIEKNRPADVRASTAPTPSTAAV
- experimental-protocol: Determination of PLTP inhibition activity (radiolabelled phospholipid liposome to HDL transfer with plasma)
pIC50: −log10 of the molar value.

# molecule, pIC50
rows = [
    ("O=C(Nc1nc(-c2ccc(O)cc2)c(CC2CCCCC2)s1)c1ccc(O)c(O)c1", 4.46),
    ("O=C(Nc1nc(-c2ccc(O)cc2)c(Cc2ccc([N+](=O)[O-])cc2)s1)c1ccc(O)c(O)c1", 4.00),
    ("O=C(Nc1nc(-c2ccc(O)cc2)c(CCc2ccccc2)s1)c1ccc(O)c(O)c1", 4.46),
    ("O=C(Nc1nc(-c2ccc(O)cc2)c(Cc2ccc(F)cc2)s1)c1ccc(O)c(O)c1", 4.00),
    ("Cc1sc(NC(=O)c2ccc(O)c(O)c2)nc1-c1ccc(O)cc1", 4.12),
    ("CCCCc1sc(NC(=O)c2ccc(O)c(O)c2)nc1-c1ccc(O)cc1", 4.12),
    ("O=C(Nc1nc(-c2ccc(O)cc2)c(Cc2ccccc2)s1)c1ccc(O)c(O)c1", 4.15),
    ("O=C(Nc1nc(-c2ccccc2)c(Cc2ccc([N+](=O)[O-])cc2)s1)c1ccc(O)c(O)c1", 4.12),
    ("O=C(CCc1ccc(O)c(O)c1)Nc1nc(-c2ccc(O)cc2)c(Cc2ccccc2)s1", 4.12),
    ("CCCCc1sc(NC(=O)c2cc(O)c(O)c(O)c2)nc1-c1ccc(O)cc1", 4.12),
    ("O=C(Nc1nc(-c2ccc(O)cc2)c(CC2CCCCC2)s1)c1cc(O)c(O)c(O)c1", 4.74),
    ("O=C(Nc1nc(-c2ccc(F)cc2)c(Cc2ccc([N+](=O)[O-])cc2)s1)c1ccc(O)c(O)c1", 4.12),
    ("O=C(Nc1nc(-c2ccc(O)cc2)c(Cc2ccccc2)s1)c1cc(O)c(O)c(O)c1", 4.82),
]

====

- tgt: CETP (Homo sapiens)
- Sequence (P11597 18-493): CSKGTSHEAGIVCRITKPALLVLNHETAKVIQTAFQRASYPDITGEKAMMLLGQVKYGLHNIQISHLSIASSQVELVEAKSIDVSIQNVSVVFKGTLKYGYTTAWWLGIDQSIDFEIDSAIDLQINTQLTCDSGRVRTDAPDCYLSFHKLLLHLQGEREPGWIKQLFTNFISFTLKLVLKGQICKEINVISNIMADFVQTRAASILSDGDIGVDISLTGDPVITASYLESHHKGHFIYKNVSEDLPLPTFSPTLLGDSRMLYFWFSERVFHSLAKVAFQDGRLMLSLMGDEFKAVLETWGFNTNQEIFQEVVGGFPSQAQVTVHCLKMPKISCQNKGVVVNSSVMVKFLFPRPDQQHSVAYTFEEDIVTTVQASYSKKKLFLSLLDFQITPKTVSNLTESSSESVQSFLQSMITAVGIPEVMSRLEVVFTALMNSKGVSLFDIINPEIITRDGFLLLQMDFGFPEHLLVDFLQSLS
- experimental-protocol: Determination of CETP inhibition activity (fluorescent donor/acceptor transfer)
- Format: biochemical
- reported-conditions: Concentration of compounds 500 μM; read-out: CETP inhibition activity Inhibition rate(%)
- Protocol: A mixture containing 3 μl of a donor, 9 μl of an acceptor (250 μg protein), 3 μl of CETP solution and 85 μl of an analytic buffer, 10 mM Tris, 0.15 M NaCl and 2 mM EDTA, pH 7.4 was incubated at 37° C. for 0.5 hours, the fluorescence intensity was determined on Victor 3 double illuminometer/fluorescence counter (Perkin Elmer) carrying […] light wave length.
Use yes when the recorded inhibition at 500 µM is no lower than 70%; use no when it is lower.

# compound, tgt, class
rows = [
    ("CCCCc1sc(NC(=O)c2ccc(O)c(O)c2)nc1-c1ccc(O)cc1 [Example 65]", "CETP (Homo sapiens)", "no"),
    ("COc1ccc(-c2nc(N)sc2CC2CCCCC2)cc1 [Example 47]", "CETP (Homo sapiens)", "yes"),
    ("COc1ccc(-c2nc(N3CCNCC3)sc2Cc2ccccc2)cc1.Cl.Cl.Cl [Example 72, trihydrochloride]", "CETP (Homo sapiens)", "yes"),
    ("Cc1sc(NC(=O)c2ccc(O)c(O)c2)nc1-c1ccc(O)cc1 [Example 56]", "CETP (Homo sapiens)", "no"),
]
